target: IDO (Homo sapiens (Human), UniProt P14902); assay: Kynurenine assay in IFN-γ-stimulated Hela cells; assay type: cell-based; conditions: 20 h, read-out: Hela Kyurenine (IC50)
Sequence (P14902 whole entry): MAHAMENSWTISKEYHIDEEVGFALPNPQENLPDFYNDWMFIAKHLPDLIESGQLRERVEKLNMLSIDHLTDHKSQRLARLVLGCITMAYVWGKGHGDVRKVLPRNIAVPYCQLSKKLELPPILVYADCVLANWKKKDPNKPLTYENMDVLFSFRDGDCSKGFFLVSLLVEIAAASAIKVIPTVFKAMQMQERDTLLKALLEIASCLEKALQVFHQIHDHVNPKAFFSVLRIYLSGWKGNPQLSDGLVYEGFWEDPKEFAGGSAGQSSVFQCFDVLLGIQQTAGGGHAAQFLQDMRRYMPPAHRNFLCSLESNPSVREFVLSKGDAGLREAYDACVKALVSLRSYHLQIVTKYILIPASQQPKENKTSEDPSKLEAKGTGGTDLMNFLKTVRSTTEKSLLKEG
Reported property: pIC50
Scale: pIC50 equals -log10([C]), with [C] in mol/L.

Exercise: Requested field: pIC50. Item: "CC(C)(C)c1ccccc1Oc1ccc(-c2cc(Cl)cc(C(=O)O)c2)cc1NC(=O)Nc1ccc(C#N)cc1"
Solution: 6.27

###

target: IDO (Homo sapiens (Human)); test: LLE_IDO_ABS_DR (IDO assay, method not described)
Each item that follows carries a reported IC50.
Only the number, expressed in nM, is required.

Worked examples follow.
{"Compound": "CC(C)(C)c1ccccc1Oc1ccc(-c2cc(Cl)ccc2C(=O)O)cc1NC(=O)Nc1ccccc1Cl [Example 166]", "Reported property": "IC50", "Experimental result": 3630}
{"Compound": "COc1ccc(-c2ccc(Oc3cccc(C)c3C)c(NC(=O)Nc3ccc(C)cc3)c2)cc1C(=O)O [Example 123]", "Reported property": "IC50", "Experimental result": 730}
{"Compound": "COc1ccc(-c2ccc(Oc3ccc4c(c3)CCCC4)c(NC(=O)Nc3ccc(C)cc3)c2)cc1C(=O)O [Example 148]", "Reported property": "IC50", "Experimental result": 490}
{"Compound": "COc1ccc(-c2ccc(Oc3cccc4ccccc34)c(NC(=O)Nc3ccc(C)cc3)c2)cc1C(=O)O [Example 131]", "Reported property": "IC50", "Experimental result": 770}
{"Compound": "CCCOc1c(NC(=O)Nc2ccc(C)cc2)cc(-c2ccccc2-c2nnn[nH]2)cc1C(CC)c1ccccc1 (stereo not shown) [Example 298]", "Reported property": "IC50", "Experimental result": 30}

Exercise: If you can, please state the reported IC50 value of CCC[C@H](Oc1ccc(-c2cc(F)ccc2C(=O)O)cc1NC(=O)Nc1ccc(C)cc1)c1ccccc1 [Example 275] .
Solution: 1740

Exercise: What about this compound? Cc1ccccc1NC(=O)Nc1cc(-c2ccccc2-c2nnn[nH]2)ccc1Oc1cccc2c1CCCC2 [Example 187]
Solution: 2330

Exercise: Repeat for the following compound: C#CCOc1cccc(Oc2ccc(-c3ccc(OC)c(C(=O)O)c3)cc2NC(=O)Nc2ccc(C)cc2)c1C [Example 141]
Solution: 330

Exercise: // repeat for COc1ccc(-c2ccc(Oc3ccccc3C(C)(C)C)c(NC(=O)Nc3ccccc3C(F)(F)F)c2)cc1C(=O)O [Example 46] and report
Solution: 320

Exercise: Input CC(C)(C)c1ccccc1Oc1ccc(-c2cccc(Cl)c2C(=O)O)cc1NC(=O)Nc1ccccc1Cl [Example 172]
Solution: 1920

Attribution: patent US9765018B2
